# testedTarget: T1, recombinant CD3D&E protein (human CD3-his tag) (human, UniProt P04234 22-105; P07766 23-126, limits assumed)
# T1 construct: Analyte in Biacore; also called CD3D&E-His; CD3d&ε-His
# T1 sequence (P04234 22-105 limits assumed, chain 1 of 2): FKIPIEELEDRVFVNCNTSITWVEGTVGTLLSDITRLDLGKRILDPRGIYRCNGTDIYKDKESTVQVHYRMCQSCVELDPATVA
# T1 sequence (P07766 23-126 limits assumed, chain 2 of 2): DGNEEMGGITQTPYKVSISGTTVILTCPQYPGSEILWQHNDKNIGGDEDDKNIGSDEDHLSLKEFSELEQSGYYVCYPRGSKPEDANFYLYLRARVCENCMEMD
# measurementProtocol: SPR Biacore, Ab captured on Protein A;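 also: humanized antibodies on a Protein A chip, human CD3-his analyte flowed over in serial dilutions for 3 min, dissociation tracked 120–360 s on a Biacore T200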
measuredAttribute: kon (M⁻¹ s⁻¹)
Note: unit M⁻¹ s⁻¹ is implicit; provide only the numeric part.

(Q) kon for Hu192A7B9-6 (antibody, V domains shown, humanized mAb) VH: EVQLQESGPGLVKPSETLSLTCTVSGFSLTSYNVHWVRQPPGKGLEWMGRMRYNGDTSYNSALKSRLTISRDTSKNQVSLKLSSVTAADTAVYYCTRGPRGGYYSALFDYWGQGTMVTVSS VL: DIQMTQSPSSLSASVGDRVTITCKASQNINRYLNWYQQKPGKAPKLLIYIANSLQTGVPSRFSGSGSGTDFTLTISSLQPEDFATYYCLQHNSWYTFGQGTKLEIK ?
(A) 84900

(Q) kon for Hu153A6B1-12 (antibody, V domains shown, humanized mAb) VH: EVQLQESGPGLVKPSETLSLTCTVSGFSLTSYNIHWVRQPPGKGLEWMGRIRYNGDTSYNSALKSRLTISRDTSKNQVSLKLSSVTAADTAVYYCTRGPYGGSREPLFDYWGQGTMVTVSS VL: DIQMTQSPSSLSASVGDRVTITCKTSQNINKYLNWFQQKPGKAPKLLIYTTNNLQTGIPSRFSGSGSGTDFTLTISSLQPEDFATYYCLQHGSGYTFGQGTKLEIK ?
(A) 79400

(Q) kon for Hu192A7B9-22 (antibody, V domains shown, humanized mAb) VH: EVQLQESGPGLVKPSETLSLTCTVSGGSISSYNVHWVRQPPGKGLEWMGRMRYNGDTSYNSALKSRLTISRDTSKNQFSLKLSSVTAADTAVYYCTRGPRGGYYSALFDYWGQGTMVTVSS VL: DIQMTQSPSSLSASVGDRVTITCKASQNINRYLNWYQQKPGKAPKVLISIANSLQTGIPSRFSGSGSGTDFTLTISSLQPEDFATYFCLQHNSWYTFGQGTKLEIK ?
(A) 83900

Where do the numbers come from? From patent US20240417469A1.
